Tested on: MKN45
Assay Notes: Inhibition of cell viability (MTS), MKN45
Assay type: cell-based
Condition Info: Homo sapiens, MKN-45, 96 h, MKN45 cells, 96 hours incubation
Give measured EC50 for each item. Keep answers brief.

query: Query (compound): O=C(Nc1cn2nc(Cn3nnc4ccc(-c5cccc(F)c5)cc43)ccc2n1)C1CC1 ; field requested: EC50
result: 0.25 to 0.63 µM

query: For CNC(=O)c1ccc(-c2ccc3nnc(Sc4ccc5nc(NC(=O)C6CC6)cn5n4)n3c2)cc1Cl , what is its reported EC50?
result: < 0.1 µM

query: Endpoint output: EC50 of CC(C)c1ccc2nnc(Sc3ccc4nc(NC(=O)C5CC5)cn4n3)n2c1 . Value?
result: < 0.1 µM

query: Which EC50 is reported for this compound? N#Cc1cccc(-c2ccc3nnc(C(F)(F)c4ccc5nc(NC(=O)C6CC6)cn5n4)n3c2)c1
result: < 0.03 µM

query: Could you tell me which EC50 is on file for COc1ccc(-c2ccc3nnc(C(F)(F)c4ccc5nc(NC(=O)C6CC6)cn5n4)n3c2)cn1 ?
result: < 0.03 µM

query: If you can, please state the reported EC50 value of O=C(Nc1cn2nc(Sc3nnc4ccc(-c5ccc(N6CCNCC6)cc5)cn34)ccc2n1)C1CC1 .
result: 0.25 to 0.63 µM

query: What value of EC50 has been recorded for this entry: COc1ccc(-c2ccc3nnc(C(C)c4ccc5nc(NC(=O)C6CC6)cn5n4)n3c2)cc1C (stereo not drawn)
result: < 0.03 µM

query: Which value of EC50 has been reported for O=C(Nc1cn2nc(Sc3nnc4ccc(-c5ccc(N6CCOCC6)nc5)cn34)ccc2n1)C1CC1 in the records?
result: 0.03 to 0.059 µM

query: Item under review: O=C(Nc1cn2nc(C(F)(F)c3nnc4ccc(-c5cc(F)cc(F)c5)cn34)ccc2n1)C1CC1 . Reported EC50?
result: < 0.03 µM

----------
Tested on: MKN45
Assay Notes: Inhibition of cell viability (MTS), MKN45
Type: cell-based
Condition Info: Homo sapiens, MKN-45, 96 h, MKN45 cells, 96 hours incubation
pEC50: −log10 of the molar value.
Observation Type: pEC50

query: Item O=C(Nc1cn2nc(Sc3nnc4ccc(-c5cnc(NCCCO)nc5)cn34)ccc2n1)C1CC1 has what recorded pEC50?
result: 4.60 to 5.10

query: What measured pEC50 goes with O=C(Nc1cn2nc(C(F)(F)c3nnc4ccc(-c5cnn(CCO)c5)cn34)ccc2n1)C1CC1 ?
result: > 7.52

query: Give its pEC50 value. Item: O=C(Nc1cn2nc(Sc3nnc4ccc(-c5cccc(F)c5)cn34)ccc2n1)C1CC1
result: > 7.00

query: Look at this molecule and give its reported pEC50. CS(=O)(=O)c1ccc(-c2ccc3nnc(C(F)(F)c4ccc5nc(NC(=O)C6CC6)cn5n4)n3c2)cc1
result: > 7.52

----------
Test system: MKN45
Assay Notes: Inhibition of cell viability (MTS), MKN45
Format: cell-based
Condition Info: Homo sapiens, MKN-45, 96 h, MKN45 cells, 96 hours incubation
Description: Cells were maintained at 37° C. in a humidified atmosphere containing 5%-8% CO2 following the instructions of the supplier (American Type Culture Collection (Rockville, Md.)). Inhibition of cell viability was determined for a panel of tumor cell lines (MKN45, EBC1 and A549), using the soluble tetrazolium salt, MTS (Promega, Madison, Wis.). […] EC50 values may be calculated by non-linear curve fitting of the compound concentrations and fluorescence intensities to the standard EC50 equation.
Counter-ions that a name gives are not always drawn.
Consider the following compounds; for each one, report its EC50.

query: Field request: EC50 | item: Cc1ccc2nnc(C(C)c3ccc4nc(NC(=O)C5CC5)cn4n3)n2c1 (centres unmarked) [Compound 53]
result: 250 to 630 nM

query: If you can, please state the reported EC50 value of CC(C)Oc1cccc(-c2ccc3nnc(C(F)(F)c4ccc5nc(NC(=O)C6CC6)cn5n4)n3c2)c1 [Compound 93] .
result: 30 to 59 nM

query: What does the record list as EC50 for Cc1csc(-c2ccc3nnc(C(F)(F)c4ccc5nc(NC(=O)C6CC6)cn5n4)n3c2)c1 [Compound 84] ?
result: < 30 nM

query: # get_value(readout='EC50', item= CC(c1ccc2nc(NC(=O)C3CC3)cn2n1)c1nnc2ccc(-c3cccc(S(C)(=O)=O)c3)cn12 (centres unmarked) [Compound 59] )
result: 100 to 249 nM

query: Which EC50 is reported for this compound? O=C(Nc1cn2nc(C(F)(F)c3nnc4ccc(-c5ccc(F)cc5)cn34)ccc2n1)C1CC1 [Compound 74]
result: < 30 nM

query: Query (compound): O=C(Nc1cn2nc(C(F)(F)c3nnc4ccc(-c5cnoc5)cn34)ccc2n1)C1CC1 [Compound 46] ; field requested: EC50
result: 60 to 100 nM

query: For CC(c1ccc2nc(NC(=O)C3CC3)cn2n1)c1nnc2ccc(-c3cnn(C)c3)cn12 (centres unmarked) [49 (HCl Salt)] , what is its reported EC50?
result: 30 to 59 nM

query: For COCc1nc(-c2ccc3nnc(Sc4ccc5nc(NC(=O)C6CC6)cn5n4)n3c2)no1 [Compound 39] , what is its reported EC50?
result: 100 to 249 nM
